Hello, the source for this data is ChEMBL document CHEMBL1201862, in case you need it.

system: SF-539; assay: NCI tumour cell line growth inhibition, 48 h
Where a name gives a salt, the structure may show the parent alone. Calls of active or inactive are those of the source. Rule as the data show it: active = GI50 up to about 1.1 µM and inactive = higher.
Labels: yes (1) for active, no (0) for inactive

compound | class
CN[C@@H](C)[C@@H](O)c1ccccc1 [PSEUDOEPHEDRINE HYDROCHLORIDE] | no (0)
CC(=O)O[C@H]1C(=O)[C@@]2(C)[C@H]([C@H](OC(=O)c3ccccc3)[C@]3(O)C[C@H](OC(=O)[C@H](O)[C@@H](NC(=O)c4ccc(N)cc4)c4ccccc4)C(C)=C1C3(C)C)[C@]1(OC(C)=O)CO[C@@H]1C[C@@H]2O | yes (1)
COc1ccc(-n2nnc3c(C#N)c(-c4ccccc4)c(C)n3c2=O)cc1 | no (0)
